assay_procedure: Acute toxicity in ICR mouse assessed as mortality at 937 mg/kg, ig administered daily for 2 weeks measured during compound dosing
Assay type: organism-based
experimental_context: in vivo, po
readout_kind: mortality at 336 h (%)

{"columns": ["smiles_input", "readout_kind", "recorded_result"],
 "data": [
  ["CCCc1nc2c(C)cc(-c3nc4ccccc4n3C)cc2n1Cc1cccc2c1ccn2-c1ccccc1C(=O)O", "mortality at 336 h", 100]
]}

---

assay_procedure: Acute toxicity in ICR mouse assessed as mortality at 750 mg/kg, ig administered daily for 2 weeks measured during compound dosing
Assay type: organism-based
experimental_context: in vivo, po

{"columns": ["smiles_input", "unit_tag", "mortality at 336 h"],
 "data": [
  ["CCCc1nc2c(C)cc(-c3nc4ccccc4n3C)cc2n1Cc1cccc2c1ccn2-c1ccccc1C(=O)O", "%", 90]
]}

---

assay_procedure: Displacement of [125I]-Sar1,Ile8-angiotensin 2 from AT1 receptor in Sprague-Dawley rat vascular smooth muscle cells after 150 mins by gamma counting analysis
pKi: −log10 of the molar value.

{"columns": ["smiles_input", "pKi"],
 "data": [
  ["CCCCCc1nc2c(C)cc(-c3nc4ccccc4n3C)cc2n1Cc1cccc2c1ccn2-c1ccccc1C(=O)O", 8.15],
  ["CCCCCc1nc2c(C)cc(-c3nc4ccccc4n3C)cc2n1Cc1ccc2c(ccn2-c2ccccc2C(=O)O)c1", 9.17],
  ["CCCCc1nc2c(C)cc(-c3ccccn3)cc2n1Cc1cccc2c1ccn2-c1ccccc1C(=O)O", 8.39],
  ["CCCCc1nc(Cl)c(CO)n1Cc1ccc(-c2ccccc2-c2nnn[nH]2)cc1", 7.88],
  ["Cc1cc(-c2nc3ccccc3n2C)cc2c1nc(C)n2Cc1ccc2c(ccn2-c2ccccc2C(=O)O)c1", 8.29],
  ["CCCc1nc2c(C)cc(-c3nc4ccccc4n3C)cc2n1Cc1cccc2c1ccn2-c1ccccc1C(=O)O", 9.64],
  ["CCCc1nc2c(C)cc(-c3nc4ccccc4n3C)cc2n1Cc1cccc2c1ccn2-c1ccccc1-c1nnn[nH]1", 8.67],
  ["CCCc1nc2c(C)cc(-c3nc4ccccc4n3C)cc2n1Cc1ccc2c(ccn2-c2ccccc2C(=O)O)c1", 8.63],
  ["Cc1cc(-c2nc3ccccc3n2C)cc2c1nc(C)n2Cc1cccc2c1ccn2-c1ccccc1C(=O)O", 8.33],
  ["CCc1nc2c(C)cc(-c3ccccn3)cc2n1Cc1cccc2c1ccn2-c1ccccc1C(=O)O", 8.59],
  ["CCCc1nc2c(C)cc(-c3nc4ccccc4n3C)cc2n1Cc1ccc(-c2ccccc2C(=O)O)cc1", 8.56]
]}

---

assay_procedure: Acute toxicity in intragastrically dosed ICR mouse assessed as mortality administered daily for 2 weeks measured during compound dosing
Format: organism-based
experimental_context: in vivo, po
readout_kind: LD50 at 336 h (mg/kg)

{"columns": ["smiles_input", "recorded_result"],
 "data": [
  ["CCCc1nc2c(C)cc(-c3nc4ccccc4n3C)cc2n1Cc1cccc2c1ccn2-c1ccccc1C(=O)O", 526]
]}

---

assay_procedure: Acute toxicity in ICR mouse assessed as mortality at 600 mg/kg, ig administered daily for 2 weeks measured during compound dosing
Type: organism-based
experimental_context: in vivo, po
readout_kind: mortality at 336 h

{"columns": ["smiles_input", "readout_kind", "recorded_result"],
 "data": [
  ["CCCc1nc2c(C)cc(-c3nc4ccccc4n3C)cc2n1Cc1cccc2c1ccn2-c1ccccc1C(=O)O", "mortality at 336 h", "60%"]
]}
